Biological target: Recombinant human IDO (Homo sapiens)
Assay: Bridge-IT tryptophan fluorescence assay of human IDO-1 inhibition
Settings: recombinant human IDO 7.5 nM, L-tryptophan
pIC50: −log10 of the molar value.
quantity kind: pIC50

Some entries whose results are on file:
| molecule | quantity kind | recorded value |
| --- | --- | --- |
| NC(=O)C1CCC(F)(CCC2c3c(Cl)cccc3-c3cncn32)CC1 (single isomer, unassigned) [Compound 99c] | pIC50 | > 7.00 |
| OC(CC1c2nc(OC3CC3)ccc2-c2cncn21)C1CCC(F)(F)CC1 (single isomer, unassigned) [Compound 69d] | pIC50 | < 6.00 |
| CC1(C)CCC(F)(CCC2c3ncncc3-c3cncn32)CC1 (single isomer, unassigned) [Compound 66a] | pIC50 | < 6.00 |

Answer with reported pIC50 of OC(CC1c2nc(Cl)ccc2-c2cncn21)C1CCCCC1 (single isomer, unassigned) [Compound 55b]
< 6.00

----------
Target: Recombinant human IDO (Homo sapiens, UniProt P14902)
Sequence (P14902 whole entry): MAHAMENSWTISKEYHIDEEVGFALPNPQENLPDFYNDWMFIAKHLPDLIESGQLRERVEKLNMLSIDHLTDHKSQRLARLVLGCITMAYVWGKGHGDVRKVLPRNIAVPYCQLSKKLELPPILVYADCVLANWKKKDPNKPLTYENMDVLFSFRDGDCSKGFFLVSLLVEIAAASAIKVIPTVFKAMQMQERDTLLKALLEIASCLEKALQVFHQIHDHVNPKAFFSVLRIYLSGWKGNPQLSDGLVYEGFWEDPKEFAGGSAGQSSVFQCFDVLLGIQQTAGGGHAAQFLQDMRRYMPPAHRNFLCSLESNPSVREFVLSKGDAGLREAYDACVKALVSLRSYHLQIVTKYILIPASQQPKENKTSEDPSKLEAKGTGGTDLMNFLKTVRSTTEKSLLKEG
Assay: Bridge-IT tryptophan fluorescence assay of human IDO-1 inhibition
Conditions: recombinant human IDO 7.5 nM, L-tryptophan
Listed next: entries and their corresponding IC50.

Some entries whose results are on file:
| molecule | quantity kind | recorded value |
| --- | --- | --- |
| OC1(C2CCC(F)(CCC3c4c(Cl)cccc4-c4cncn43)CC2)CC1 (mixture of isomers) [Compound 106a] | IC50 | < 0.1 µM |
| Fc1ccnc2c1-c1cncn1C2CCC1(F)CCCCC1 (single isomer, unassigned) [Compound 102b] | IC50 | > 1 µM |
| OC(CC1c2ncncc2-c2cncn21)C1CCCCC1 (single isomer, unassigned) [Compound 67c] | IC50 | > 1 µM |
| CN(C)C(=O)C1CCC(F)(CCC2c3c(Cl)cccc3-c3cncn32)CC1 (single isomer, unassigned) [Compound 114c] | IC50 | > 1 µM |

Answer with reported IC50 of Fc1cccc2c1C(CC(F)C1CCCCC1)n1cncc1-2 (single isomer, unassigned) [Compound 98b]
< 0.1 µM

Answer with reported IC50 of CC(C)(C)C(=O)N1CCC(C(O)CC2c3ncccc3-c3cncn32)CC1 (single isomer, unassigned) [Compound 88c]
> 1 µM

Answer with reported IC50 of COc1cccc2c1-c1cncn1C2CCC1(F)CCC(O)CC1 (stereo not shown) [Compound 41a]
> 1 µM

----------
Target: Recombinant human IDO (Homo sapiens)
Assay: Bridge-IT tryptophan fluorescence assay of human IDO-1 inhibition
Conditions: recombinant human IDO 7.5 nM, L-tryptophan
quantity kind: IC50

| compound | tested target | IC50 |
| --- | --- | --- |
| OC1CCC(F)(CCC2c3c(Cl)cccc3-c3cncn32)CC1 (single isomer, unassigned) [Compound 71c] | Recombinant human IDO (Homo sapiens) | > 1000 nM |
| FC1(CCC2c3ccccc3-c3cncn32)CCOCC1 (single isomer, unassigned) [Compound 94a] | Recombinant human IDO (Homo sapiens) | > 1000 nM |
| COc1ccc2c(n1)C(CC(N)C1CCC(F)(F)CC1)n1cncc1-2 (single isomer, unassigned) [Compound 120b] | Recombinant human IDO (Homo sapiens) | > 1000 nM |
| OC(CC1c2ncccc2-c2cncn21)C1(F)CCC(F)(F)CC1 (single isomer, unassigned) [Compound 87b] | Recombinant human IDO (Homo sapiens) | > 1000 nM |

State, for Recombinant human IDO (Homo sapiens), measured IC50 of the compound listed here: NC(=O)C1CCC(F)(CCC2c3ccccc3-c3cncn32)CC1 (single isomer, unassigned) [Compound 79c]
< 100 nM

State, for Recombinant human IDO (Homo sapiens), measured IC50 of the compound listed here: NS(=O)(=O)C1CCC(F)(CCC2c3ccccc3-c3cncn32)CC1 (single isomer, unassigned) [Compound 121c]
> 1000 nM

State, for Recombinant human IDO (Homo sapiens), measured IC50 of the compound listed here: COc1ccc2c(n1)C(CC(O)C1CCC(C)(C)CC1)n1cncc1-2 (single isomer, unassigned) [Compound 40b]
100 to 1000 nM

State, for Recombinant human IDO (Homo sapiens), measured IC50 of the compound listed here: OC(CC1c2ncccc2-c2cncn21)C1(F)CCC(F)(F)CC1 (single isomer, unassigned) [Compound 87d]
100 to 1000 nM

State, for Recombinant human IDO (Homo sapiens), measured IC50 of the compound listed here: OC1CCC(F)(CCC2c3c(F)ccc(F)c3-c3cncn32)CC1 (single isomer, unassigned) [Compound 38c]
> 1000 nM

State, for Recombinant human IDO (Homo sapiens), measured IC50 of the compound listed here: Fc1ccnc2c1-c1cncn1C2CCC1(F)CCCCC1 (single isomer, unassigned) [Compound 102a]
> 1000 nM

State, for Recombinant human IDO (Homo sapiens), measured IC50 of the compound listed here: COc1ccc2c(n1)C(CC(O)C1CCC(F)(F)CC1)n1cncc1-2 (stereo not drawn) [Compound 33a]
100 to 1000 nM

State, for Recombinant human IDO (Homo sapiens), measured IC50 of the compound listed here: O[C@H]1CC[C@](F)(CC[C@H]2c3ccccc3-c3cncn32)CC1 [Compound 14b]
< 100 nM

State, for Recombinant human IDO (Homo sapiens), measured IC50 of the compound listed here: OCC1CCC(F)(CCC2c3ccccc3-c3cncn32)CC1 (single isomer, unassigned) [Compound 59c]
< 100 nM

State, for Recombinant human IDO (Homo sapiens), measured IC50 of the compound listed here: FC1(F)CCC(CCC2c3ncccc3-c3cncn32)CC1 (stereo not drawn)
100 to 1000 nM

State, for Recombinant human IDO (Homo sapiens), measured IC50 of the compound listed here: OC(CC1c2nc(C3CC3)ccc2-c2cncn21)C1CCC(F)(F)CC1 (stereo not drawn) [Compound 57a]
> 1000 nM

----------
Listed next: entries and their corresponding IC50.
Molecular target: Recombinant human IDO (Homo sapiens, UniProt P14902)
Assay: Bridge-IT tryptophan fluorescence assay of human IDO-1 inhibition
Format: biochemical
Settings: recombinant human IDO 7.5 nM, L-tryptophan

Some entries whose results are on file:
| compound | recorded value |
| --- | --- |
| FC1(CCC2c3nc(C(F)(F)F)ccc3-c3cncn32)CCCCC1 (single isomer, unassigned) [Compound 76b] | > 1 µM |
| OC1CCC(C(F)(F)CC2c3c(F)ccc(F)c3-c3cncn32)CC1 (mixture of isomers) [Compound 78b] | > 1 µM |

Answer with reported IC50 of OC1CCC(F)(CCC2c3c(Cl)cccc3-c3cncn32)CC1 (single isomer, unassigned) [Compound 71b]
0.1 to 1 µM

Answer with reported IC50 of Oc1cccc2c1-c1cncn1C2CCC1(F)CCCCC1 (single isomer, unassigned) [Compound 43a]
> 1 µM

Answer with reported IC50 of Fc1cccc2c1C(CCC1(F)CCOCC1)n1cncc1-2 (single isomer, unassigned) [Compound 95a]
> 1 µM

Answer with reported IC50 of OC1CCC(F)(CCC2c3c(Cl)cccc3-c3cncn32)CC1 (single isomer, unassigned) [Compound 71d]
< 0.1 µM

Answer with reported IC50 of COc1ccc2c(n1)C(CCC1(F)CCCCC1)n1cncc1-2 (single isomer, unassigned) [Compound 32a]
> 1 µM

----------
Target: Recombinant human IDO (Homo sapiens)
Test: Bridge-IT tryptophan fluorescence assay of human IDO-1 inhibition
Conditions: recombinant human IDO 7.5 nM, L-tryptophan
Protocol: Measurement of human IDO-1 inhibition is performed in 384 well format using the Bridge-IT® tryptophan Fluorescence Assay (Mediomics, LLC, St. Louis, Mo., U.S.A.). The reaction is initiated by the addition of L-Tryptophan (Sigma) at a final concentration of 100 μM in assay buffer. […] Measurement of human IDO-1 inhibition was performed in 384-well format using the BRIDGE-IT® tryptophan Fluorescence Assay (Mediomics, LLC, St. Louis, Mo., U.S.A.). […]
pIC50: −log10 of the molar value.
quantity kind: pIC50

| compound | tested target | pIC50 |
| --- | --- | --- |
| OC(CC1c2nc(OC3CC3)ccc2-c2cncn21)C1CCC(F)(F)CC1 (single isomer, unassigned) [Compound 69b] | Recombinant human IDO (Homo sapiens) | < 6.00 |
| FC1(CCC2c3c(Cl)cccc3-c3cncn32)CCOCC1 (single isomer, unassigned) [Compound 96b] | Recombinant human IDO (Homo sapiens) | 6.00 to 7.00 |
| NC(=O)CC1CCC(F)(CCC2c3c(F)cccc3-c3cncn32)CC1 (single isomer, unassigned) [Compound 116c] | Recombinant human IDO (Homo sapiens) | < 6.00 |
| OC(CC1c2ncccc2-c2cncn21)C1(F)CCC(F)(F)CC1 (single isomer, unassigned) [Compound 87c] | Recombinant human IDO (Homo sapiens) | < 6.00 |
| O=C(O)C1CCC(F)(CCC2c3ccccc3-c3cncn32)CC1 (single isomer, unassigned) [Compound 82a] | Recombinant human IDO (Homo sapiens) | > 7.00 |
| OC1CCC(F)(CCC2c3nccc(F)c3-c3cncn32)CC1 (mixture of isomers) [Compound 103a] | Recombinant human IDO (Homo sapiens) | < 6.00 |

# ---- query compound ----
Answer with reported pIC50 of OC1CCC(F)(CCC2c3c(F)ccc(F)c3-c3cncn32)CC1 (single isomer, unassigned) [Compound 38a]
< 6.00

Sourced from patent US9771370B2
